# credit: ChEMBL document CHEMBL3046217

The following molecules are listed with their measured MIC values.
Test system: Bacillus spizizenii
assay.details: Antimicrobial activity against Bacillus subtilis subsp. spizizenii ATCC 6633 after 24 hr by agar diffusion method
Assay type: functional
condition.summary: Bacillus spizizenii, ATCC 6633, 24 h

{"molecule": "C(=N/Nc1nc2nc3ccccc3nc2s1)/c1cn(-c2ccccc2)nc1-c1cccs1", "MIC": "41.6 µg/mL"}
{"molecule": "O=C1CS/C(=N\\N=C/c2cn(-c3ccccc3)nc2-c2cccs2)N1", "MIC": "167 µg/mL"}
{"molecule": "N/C(=N/N=C\\c1cn(-c2ccccc2)nc1-c1cccs1)SCC(=O)Nc1cccs1", "MIC": "83.3 µg/mL"}
{"molecule": "C(=N/Nc1nc(-c2cc3ccccc3o2)cs1)/c1cn(-c2ccccc2)nc1-c1cccs1", "MIC": "167 µg/mL"}
{"molecule": "Clc1ccc(C2=NNC(c3cn(-c4ccccc4)nc3-c3cccs3)C2)cc1 (stereo unspecified)", "MIC": "333 µg/mL"}
{"molecule": "Cc1nc(N/N=C\\c2cn(-c3ccccc3)nc2-c2cccs2)sc1/N=N/c1ccc(F)cc1", "MIC": "167 µg/mL"}
{"molecule": "O=C(O)c1cn(C2CC2)c2cc(N3CCNCC3)c(F)cc2c1=O", "MIC": "10.4 µg/mL"}
{"molecule": "NC(=S)N/N=C\\c1cn(-c2ccccc2)nc1-c1cccs1", "MIC": "20.8 µg/mL"}
{"molecule": "Cc1ccc(NC(=S)N2N=C(c3ccc(Cl)cc3)CC2c2cn(-c3ccccc3)nc2-c2cccs2)cc1 (stereo unspecified)", "MIC": "167 µg/mL"}
{"molecule": "O=c1oc2ccccc2cc1-c1csc(N/N=C\\c2cn(-c3ccccc3)nc2-c2cccs2)n1", "MIC": "167 µg/mL"}
{"molecule": "O=C(/C=C/c1cn(-c2ccccc2)nc1-c1cccs1)c1ccc(Cl)cc1", "MIC": "167 µg/mL"}

====

System: Enterococcus faecalis
assay.details: Antimicrobial activity against Enterococcus faecalis ATCC 29212 after 24 hr by agar diffusion method
Type: functional
condition.summary: Enterococcus faecalis, ATCC 29212, 24 h

{"compound": "O=c1oc2ccccc2cc1-c1csc(N/N=C\\c2cn(-c3ccccc3)nc2-c2cccs2)n1", "MIC, µg/mL": 83.3}
{"compound": "N/C(=N/N=C\\c1cn(-c2ccccc2)nc1-c1cccs1)SCC(=O)Nc1cccs1", "MIC, µg/mL": 83.3}
{"compound": "Clc1ccc(C2=NNC(c3cn(-c4ccccc4)nc3-c3cccs3)C2)cc1 (centres undefined)", "MIC, µg/mL": 41.6}
{"compound": "O=C(/C=C/c1cn(-c2ccccc2)nc1-c1cccs1)c1ccc(Cl)cc1", "MIC, µg/mL": 83.3}
